Below is a list of entries, each paired with its recorded pIC50 value.
systemUnderTest: NMDA-receptor subtype 2B (Rattus norvegicus, UniProt P35439+Q00960)
Construct: Membranes were prepared by homogenization of the whole brain minus cerebellum and medulla oblongata
Sequence (Q00960 27-1482, other chains not shown): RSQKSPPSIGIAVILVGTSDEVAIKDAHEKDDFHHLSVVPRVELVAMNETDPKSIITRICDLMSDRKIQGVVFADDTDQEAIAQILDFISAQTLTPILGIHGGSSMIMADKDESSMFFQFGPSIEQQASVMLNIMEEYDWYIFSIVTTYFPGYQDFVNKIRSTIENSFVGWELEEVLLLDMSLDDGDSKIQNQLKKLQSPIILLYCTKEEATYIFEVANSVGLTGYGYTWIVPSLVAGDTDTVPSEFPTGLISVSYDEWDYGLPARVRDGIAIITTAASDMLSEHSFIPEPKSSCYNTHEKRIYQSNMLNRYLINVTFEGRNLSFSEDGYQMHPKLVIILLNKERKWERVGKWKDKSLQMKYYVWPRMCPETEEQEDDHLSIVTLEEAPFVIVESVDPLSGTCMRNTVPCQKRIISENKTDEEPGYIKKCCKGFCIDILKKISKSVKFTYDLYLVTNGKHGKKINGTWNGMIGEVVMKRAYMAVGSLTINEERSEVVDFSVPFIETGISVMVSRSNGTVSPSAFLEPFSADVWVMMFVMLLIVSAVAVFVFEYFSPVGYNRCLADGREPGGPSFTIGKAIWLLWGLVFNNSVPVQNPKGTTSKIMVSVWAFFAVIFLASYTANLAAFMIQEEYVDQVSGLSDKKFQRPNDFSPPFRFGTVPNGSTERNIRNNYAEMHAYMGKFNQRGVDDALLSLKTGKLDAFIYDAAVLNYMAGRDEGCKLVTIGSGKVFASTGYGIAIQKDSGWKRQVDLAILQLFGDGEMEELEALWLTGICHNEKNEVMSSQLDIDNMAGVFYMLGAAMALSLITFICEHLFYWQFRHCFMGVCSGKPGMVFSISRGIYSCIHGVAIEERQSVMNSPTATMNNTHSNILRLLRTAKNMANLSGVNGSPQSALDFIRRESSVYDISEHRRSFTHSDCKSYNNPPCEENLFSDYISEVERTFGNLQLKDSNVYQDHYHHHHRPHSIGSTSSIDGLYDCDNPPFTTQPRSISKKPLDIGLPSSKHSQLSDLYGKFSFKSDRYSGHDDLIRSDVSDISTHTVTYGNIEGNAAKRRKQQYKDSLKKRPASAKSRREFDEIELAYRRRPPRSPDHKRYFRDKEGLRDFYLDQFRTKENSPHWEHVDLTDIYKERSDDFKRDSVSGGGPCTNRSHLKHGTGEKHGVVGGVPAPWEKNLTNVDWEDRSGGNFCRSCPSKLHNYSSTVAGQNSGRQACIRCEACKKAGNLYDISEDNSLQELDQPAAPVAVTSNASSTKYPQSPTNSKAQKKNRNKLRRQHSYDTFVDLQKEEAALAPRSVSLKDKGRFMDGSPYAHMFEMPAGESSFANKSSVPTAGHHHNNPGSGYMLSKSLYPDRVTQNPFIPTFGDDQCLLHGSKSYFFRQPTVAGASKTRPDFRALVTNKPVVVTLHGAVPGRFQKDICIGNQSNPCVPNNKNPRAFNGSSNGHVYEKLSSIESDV
methodSummary: 3H-Ro 25-6981 binding (displacement) on rat brain membranes
details: displacement of 5 nM 3H-Ro 25-6981, rat whole brain membranes (minus cerebellum and medulla oblongata), 2 hours at 4° C.
Please note pIC50 is a logarithmic value: minus log10 of concentration in mol/L. Answer with that number alone.

Below: 4 compounds and their reported pIC50.
Cc1nccn1Cc1cn(-c2cccc(C(C)C)c2)cn1.Cl.Cl: 8.00
Cc1nccn1Cc1cn(-c2cccc(Br)c2)cn1.Cl.Cl: 7.26
Cc1ccc(-n2cnc(Cn3ccnc3C)c2)cc1C(F)(F)F.Cl.Cl: 7.37
Clc1ccc(-n2cnc(Cn3ccnc3C3CC3)c2)cc1Cl: 7.92

Read the next record carefully.
Exercise: Endpoint output: pIC50 of CC(F)(F)c1cc(-n2cnc(Cn3ccnc3)c2)ccc1F.Cl.Cl . Value?
Key: 7.87

Origin of values: patent US6667335B2
